List of kon values.
# tested.system: T1, extracellular domain of human CD47 (CD47-ECD), residues 1-118, with His6 tag and Avi tag (human, UniProt Q08722 19-136, biotin modification at the C-terminus (Avi tag, BirA) in the form called CD47-Bio)
# T1 construct: also called CD47-ECD-His6; CD47-Bio; not shown: His6 tag and Avi tag from the vector
# protocol.details: SPR (Biacore T200), IgG1 captured on CM5 chip, CD47 as analyte [Con't]

# binder, kon, M⁻¹ s⁻¹
data = [
    ("BC18m03 (antibody, IgG1, V domains shown) VH: QVQLQESGPGLVKPSETLSLTCTVSGDSINYHYWSWIRQPPGKGLEWIGYIYYSGSTTYNPSLKSRVTMSVDPSKNHFSLKLTSVTAADTALYFCARQRGAYDYWGQGTLVTVSS VL: DIQLTQSPSSVSASVGDRVTIACRASQDIGSRLVWYQQRPGKAPKLLIYAASSLQSGVPSRFSGSGSGTDFTLTISSLQPEDFATYYCQQSYSTPYSFGQGTKLEIK", 762000),
    ("BC7m03 (antibody, IgG1, V domains shown) VH: QVQLQQSGPGLVKPSETLSLTCTVSGDSINYHYWSWIRQPPGKGLEWIGYIYYSGSTTYNPSLKSRVTMSVDPSKNHFSLKLTSVTAADTALYFCARQRGAYDYWGQGTLVTVSS VL: DIVMTQSPSSVSASVGDRVTITCRASQDIGSRLAWYQQKPGKAPQLLIYAASSLQSGVPSRFSGSGSGTEFTLTISSLQPDDFATYYCQQYNSFSPITFGQGTRLEIK", 806000),
    ("BC7 full-length human IgG1 (antibody, V domains shown) VH: QVQLQQSGPGLVKPSETLSLTCTVSGDSINYHYWSWIRQPPGKGLEWIGYIYYSGSTTYNPSLKSRVTMSVDPSKNHFSLKLTSVTAADTALYFCARQRGAYDYWGQGTLVTVSS VL: DIVMTQSPSSVSASVGDRVTITCRASQGIGSRLAWYQQKPGKAPQLLIYAASSLQSGVPSRFSGSGSGTEFTLTISSLQPDDFATYYCQQYNSFSPITFGQGTRLEIK", 816000),
    ("BC7m04 (antibody, IgG1, V domains shown) VH: QVQLQQSGPGLVKPSETLSLTCTVSGDSINYHYWSWIRQPPGKGLEWIGYIYYSGSTTYNPSLKSRVTMSVDPSKNHFSLKLTSVTAADTALYFCARQRGAYDYWGQGTLVTVSS VL: DIVMTQSPSSVSASVGDRVTITCRASQDIGSRLAWYQQKPGKAPKLLIYAASSLQSGVPSRFSGSGSGTDFTLTISSLQPEDFATYYCQQYNSFSPITFGQGTRLEIK", 763000),
    ("BC18 full-length human IgG1 (antibody, V domains shown, also called anti-CD47 mAb; parental anti-CD47 mAb) VH: QVQLQQSGPGLVKPSETLSLTCTVSGDSINYHYWSWIRQPPGKGLEWIGYIYYSGSTTYNPSLKSRVTMSVDPSKNHFSLKLTSVTAADTALYFCARQRGAYDYWGQGTQVTVSS VL: DIQLTQSPSSVSASVGDRVTIACRASQDIGSRLVWYQQRPGKAPKLLIYAASSLQSGVPSRFSGSGSGTDFTLTISSLQPEDFATYYCQQSYSTPYSFGQGTKLEIK", 721000),
]
